These measurements were taken from patent EP4737482A1.

Target: T1, human MYCT1 (hMYCT1) (human, UniProt Q8N699 1-235, limits assumed)
T1 construct: also called MYC Target 1
T1 sequence: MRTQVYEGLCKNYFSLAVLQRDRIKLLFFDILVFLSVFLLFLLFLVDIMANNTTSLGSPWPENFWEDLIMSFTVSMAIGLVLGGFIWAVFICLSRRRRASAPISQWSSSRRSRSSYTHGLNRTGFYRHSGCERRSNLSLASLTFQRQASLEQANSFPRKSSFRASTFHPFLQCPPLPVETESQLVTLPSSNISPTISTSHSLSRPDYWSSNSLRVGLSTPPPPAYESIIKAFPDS
Test: SPR (Biacore 8K), antibody captured via anti-human Fc IgG, MYCT1 as analyte, steady-state affinity model
OBSERVABLE: pKd
Quick note: pKd values are minus log10 of concentrations in mol/L.

2B4-z5-uIgG1K (antibody, V domains shown) VH: QVQLVQSGAEVKKPGASVKVSCKASGYTFTDYNMHWVRQAPGQGLEWMGYINPNNGGSSYNRKFKGRVTMTTDKSTSTAYMELRSLRSDDTAVYYCATRFDVWGQGTTVTVSS VL: DVVMTQSPLSLPVTLGQPASISCKSSQSLLFSDGKTYLNWLQQRPGQSPRRLIYLVSKLDSGVPDRFSGSGSGTDFTLKISRVEAEDVGVYYCWQGTHFPQTFGGGTKVEIK: 6.45
2B4-z7-uIgG1K (antibody, V domains shown) VH: QVQLVQSGAEVKKPGASVKMSCKASGYTFTDYNMHWVRQAPGQGLEWMGYINPNNGGSSYNRKFKGRVTMTTDTSTSTAYMELRSLRSDDTAVYYCATRFDVWGQGTTVTVSS VL: DVVMTQSPLSLPVTLGQPASISCKSSQSLLFSDGKTYLNWLQQRPGQSPRRLIYLVSKLDSGVPDRFSGSGSGTDFTLKISRVEAEDVGVYYCWQGTHFPQTFGGGTKVEIK: 6.42

Alright, here's another binder for you.
query: Complete the entry with pKd for 2B4-z13-uIgG1K (antibody, V domains shown) VH: QVQLVQSGAEVKKPGASVKMSCKASGYTFTDYNMHWVRQAPGQGLEWIGYINPNNGGSSYNRKFKGRVTLTVDKSTRTAYMELRSLRSDDTAVYYCATRFDVWGQGTTVTVSS VL: DVVMTQSPLSLPVTLGQPASISCKSSQSLLFSDGKTYLNWLQQRPGQSPRRLIYLVSKLDSGVPDRFSGSGSGTDFTLKISRVEAEDVGVYYCWQGTHFPQTFGGGTKVEIK
result: 6.35
